Test system: PXR homodimer (NR concentration 270 nM)
Test: PBM binding z-score (relative to random genomic background probes); higher = stronger binding; sequences stand for … in GC…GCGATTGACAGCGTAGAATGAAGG
Overview of reported PBM binding z-score across a group of sequences:
Respond with the number and no other words.

- input_sequence: "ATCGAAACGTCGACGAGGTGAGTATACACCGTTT"
  result: -0.33
- input_sequence: "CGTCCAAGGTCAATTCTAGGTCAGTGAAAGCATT"
  result: 1.82
- input_sequence: "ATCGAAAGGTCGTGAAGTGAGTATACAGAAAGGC"
  result: 0.278
- input_sequence: "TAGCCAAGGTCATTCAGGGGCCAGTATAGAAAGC"
  result: 1.43
- input_sequence: "CATACACGGTCAGCTAGGCCAGAGTAGGGACGGC"
  result: -0.264

Asked: GET /values?readout=PBM binding z-score&system=PXR homodimer (NR concentration 270 nM)&item= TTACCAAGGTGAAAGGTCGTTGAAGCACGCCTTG
Given back: 0.41

Asked: Repeat for the following sequence: TCGAGTAGGTTACGGGGGCGTTCAGGGATGAAGA
Given back: 1.81

Asked: Repeat for the following sequence: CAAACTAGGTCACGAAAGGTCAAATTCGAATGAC
Given back: 2.34

Asked: Repeat for the following sequence: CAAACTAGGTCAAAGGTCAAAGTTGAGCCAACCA
Given back: 1.83

Asked: Repeat for the following sequence: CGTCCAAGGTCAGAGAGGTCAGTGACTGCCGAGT
Given back: 11.3

Asked: Repeat for the following sequence: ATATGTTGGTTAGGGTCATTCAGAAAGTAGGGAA
Given back: 2.69

Asked: Repeat for the following sequence: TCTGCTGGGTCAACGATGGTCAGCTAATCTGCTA
Given back: -1.34
